- Measured target: full-length beta-Catenin (Uniprot ID P35222) (Homo sapiens (Human)) (UniProt P35222)
- Sequence (P35222 whole entry): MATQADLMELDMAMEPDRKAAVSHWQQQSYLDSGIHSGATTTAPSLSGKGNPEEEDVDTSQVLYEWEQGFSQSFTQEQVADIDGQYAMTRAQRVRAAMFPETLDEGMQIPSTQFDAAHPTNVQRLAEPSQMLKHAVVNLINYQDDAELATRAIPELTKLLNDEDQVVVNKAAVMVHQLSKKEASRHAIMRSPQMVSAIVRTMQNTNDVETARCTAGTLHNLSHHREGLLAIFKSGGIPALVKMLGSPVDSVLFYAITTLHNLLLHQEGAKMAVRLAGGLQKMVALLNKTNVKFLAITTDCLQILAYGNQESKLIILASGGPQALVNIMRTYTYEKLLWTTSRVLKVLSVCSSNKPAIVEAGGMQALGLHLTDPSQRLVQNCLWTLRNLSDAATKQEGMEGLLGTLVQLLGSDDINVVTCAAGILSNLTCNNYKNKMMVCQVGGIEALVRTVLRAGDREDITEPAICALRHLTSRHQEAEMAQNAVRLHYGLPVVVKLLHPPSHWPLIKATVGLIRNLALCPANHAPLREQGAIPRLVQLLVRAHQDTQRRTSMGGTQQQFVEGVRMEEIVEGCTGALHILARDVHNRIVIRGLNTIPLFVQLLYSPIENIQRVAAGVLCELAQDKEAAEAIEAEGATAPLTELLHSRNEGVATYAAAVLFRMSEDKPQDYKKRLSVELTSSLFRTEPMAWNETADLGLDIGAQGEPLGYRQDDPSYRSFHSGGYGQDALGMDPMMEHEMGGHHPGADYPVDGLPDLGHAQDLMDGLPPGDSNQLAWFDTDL
- Measurement description: FP competition: displacement of 5FAM-TCF4(10-53) from full-length beta-catenin
pEC50: −log10 of the molar value. Starred links: 1 amine or outer side, 2 acyl side, 3 side chain; linkers in the order of their positions; H or OH if unused. Positions of bridges follow the written chain, without caps; N, C: chain ends. Non-standard residues stand in square brackets, D forms with d. Primed or numbered codes have the meaning given here. *: point of attachment. PyrS2″ = (S)-3-amino-1-((pent-4-en-1-yloxy)carbonyl)pyrrolidine-3-carboxylic acid (stapling residue), C=CCCCOC(=O)N1CC[C@@](N[*:1])(C(=O)[*:2])C1; B5(4) = 2,2-bis(4-pentenyl)glycine = 2-amino-2-(pent-4-en-1-yl)hept-6-enoic acid (stitching residue), C=CCCCC(CCCC=C)(N[*:1])C(=O)[*:2]; B5(5) = 2,2-bis(4-pentenyl)glycine, 2-amino-2-(pent-4-en-1-yl)hept-6-enoic acid (stitching residue), C=CCCCC(CCCC=C)(N[*:1])C(=O)[*:2]; Phe(2-Cl) = N[C@@H](Cc1ccccc1Cl)C(=O)O; Bta = N[C@@H](Cc1csc2ccccc12)C(=O)O; αAllylPro = C=CC[C@@]1(C(=O)O)CCCN1; tBuAla = CC(C)(C)C[C@H](N)C(=O)O; 3Thi = N[C@@H](Cc1ccsc1)C(=O)O; S8 = C=CCCCCCC[C@](C)(N)C(=O)O; Leu(ol) = CC(C)C[C@H](N)CO; Octanoyl = CCCCCCCC(=O)*
Recorded endpoint: pEC50

[[record]]
binder = "Ac-[αAllylPro]D[tBuAla][B5(4)]DDAAFL[PyrS2″][Phe(2-Cl)][Bta][Leu(ol)] (staple 1-4, 4-11) [I-1251]"
recorded_endpoint = "pEC50"
measurement = 5.71

[[record]]
binder = "Ac-[αAllylPro]Q[tBuAla][B5(5)]DDAAFN[PyrS2″][3Thi][Bta]Q-NH2 (staple 1-4, 4-11) [I-1224]"
recorded_endpoint = "pEC50"
measurement = 6.41

[[record]]
binder = "Octanoyl-[αAllylPro]D[tBuAla][B5(4)]DDAAFT[S8][Phe(2-Cl)][Bta]Q-NH2 (staple 1-4, 4-11) [I-1254]"
recorded_endpoint = "pEC50"
measurement = 6.28

